Where do the numbers come from? From paper PMC11302729.

- System: S. aureus str. Newman
- assay explanation: Membrane permeability using SYTOX-Green, flow cytometry
- Format: cell-based
- test settings: 0.5× MIC, 5 min exposure
measure name: % FITC stained bacteria 0.5 xMIC (%)

• CO[C@@H]1[C@@H](OC(N)=O)[C@@H](O)[C@H](Oc2ccc3c(O)c(NC(=O)c4ccc(O)c(CC=C(C)C)c4)c(=O)oc3c2C)OC1(C)C [Novobiocin, reference compound] = 8.28
• Oc1cc(OCc2ccccc2)ccc1-c1[nH]nc(C(F)(F)F)c1-c1ccc(Cl)cc1 = 12.26
• Oc1cc(OCc2ccccc2)ccc1-c1[nH]nc(C(F)(F)F)c1-c1ccccc1 = 7.94
• Oc1ccc(-c2onc(C(F)(F)F)c2-c2ccc(Cl)cc2)c(O)c1 = 24.77
• CCOc1ccc(-c2[nH]nc(C(F)(F)F)c2-c2ccc(OC)cc2)c(O)c1 = 28.78
• CCOc1ccc(-c2[nH]nc(C(F)(F)F)c2-c2ccc(Cl)cc2)c(O)c1 = 42.44
• CCOc1ccc(-c2[nH]nc(C(F)(F)F)c2-c2ccccc2)c(O)c1 = 35.78
• COc1ccc(-c2[nH]nc(C(F)(F)F)c2-c2ccccc2)c(O)c1 = 49.81
